Test system: OVCAR-4 ovarian
assay.text: NCI tumour cell line growth inhibition, 48 h
value.kind: TGI

>>> result("CC(C(=O)O)c1ccc(-c2ccccc2)c(F)c1 (centres undefined)")
"> 100 µM"
>>> result("NC(=S)NNC(=S)NC(=O)c1ccco1")
"> 10 µM"
>>> result("CCCCCCCCCCCCCCCCCCNC(=O)OCC(CNS(=O)(=O)CCC[n+]1cccc2ccccc21)COC (centres undefined)")
"7.01 µM"
>>> result("COc1cc2c(c(OC)c1)C(=O)O[C@H](C)CCCC/C=C/C2")
"> 31.4 µM"
>>> result("Clc1ccc2c(c1)[nH]c1c2nc2sccn21")
"> 100 µM"
>>> result("COc1cc(C2c3cc4c(cc3[C@@H](N(C)C)[C@H]3COC(=O)C23)OCO4)cc(OC)c1O (some centres undefined)")
"> 100 µM"

[Q] Please give the measured TGI for this molecule: CCOC(=O)Nc1nc2cc(OCC)ccc2s1
[A] > 100 µM

[Q] Please give the measured TGI for this molecule: Nc1ccc2c(c1)NC(=O)[C@@H]1CCCN1C2=O
[A] > 100 µM

[Q] Please give the measured TGI for this molecule: COc1ccc([C@@H](O)c2cc(-c3ncnc4cc(N5CCOCC5)ccc34)c(F)cc2Cl)nn1
[A] > 100 µM

* * *

Tested on: A498 renal
assay.text: NCI tumour cell line growth inhibition, 48 h; in the data active = GI50 below about 0.43 µM; inactive = the rest
Hello, when you answer, please use one of the following outcomes: active, inactive

The following molecules have reported results that may help.
>>> class_assignment("O=C(Nc1ccc(Br)cc1)Nc1nn(C(=O)Nc2ccc(Br)cc2)c2ccccc12")
"inactive"
>>> class_assignment("CCCCCCNC(=O)n1cc(F)c(=O)[nH]c1=O")
"inactive"

[Q] Hi, sorry to bother you, what did the test record for CCCCN(CCCC)CCc1c(C)cc(C)c(CCN(CCCC)CCCC)c1O ?
[A] inactive

* * *

The molecules listed here are annotated with their TGI.
System: RXF 393 renal
assay.text: NCI tumour cell line growth inhibition, 48 h

[Q] Please give the measured TGI for this molecule: CCCCN(CC)c1ncnc2ccc(Br)cc12
[A] 24.7 µM

[Q] Please give the measured TGI for this molecule: COc1ccc(NC(=O)n2nc(/C=C\c3ccc(O)c(OC)c3)cc2/C=C\c2ccc(O)c(OC)c2)cc1
[A] 8.87 µM

* * *

System: KM12 colon
assay.text: NCI tumour cell line growth inhibition, 48 h
The compounds listed here are annotated with their TGI.

Below: 2 compounds and their reported TGI.
>>> result("C=CCc1ccccc1C1CC2(C(=O)OC)OC1C(C(=O)OC)=C2C(=O)OC (stereo not given)")
"> 10 µM"
>>> result("Cc1cc2nc(-c3c(N)ncc(C#N)c3-c3ccc(Cl)cc3)[nH]c2cc1C")
"> 100 µM"

[Q] # value lookup — system KM12 colon, readout TGI, item O=C(N/N=C/c1ccc(Cl)cc1)c1[nH]c2ccc(Cl)cc2c1-c1ccccc1
[A] 0.568 µM

[Q] # value lookup — system KM12 colon, readout TGI, item CS(=O)(=O)NNS(=O)(=O)c1ccc(Cl)cc1
[A] > 100 µM

[Q] # value lookup — system KM12 colon, readout TGI, item CS(=O)(=O)[O-].CS(=O)(=O)[O-].NC1CCCCC1N.[Pt+4] (stereo not given)
[A] > 100 µM

[Q] # value lookup — system KM12 colon, readout TGI, item COc1cc2c(cc1O)CCN(C)[C@H]2Cc1ccc(Oc2c(O)c(OC)cc3c2C[C@H]2c4c(c(OC)c(OC)c(OC)c4-3)CCN2C)cc1
[A] 8.89 µM

[Q] # value lookup — system KM12 colon, readout TGI, item O=c1nc2ccc3sc4ccccc4c(=O)c3n2c(=O)[nH]1
[A] > 100 µM

[Q] # value lookup — system KM12 colon, readout TGI, item COC(=O)c1ccc(CN2C(=O)C(Cl)=C(Nc3ccc(OC)c(Cl)c3)C2=O)cc1
[A] > 50 µM

[Q] # value lookup — system KM12 colon, readout TGI, item CNC(=O)N(CCC#N)CCCN(C(=O)N(C)C)c1ccccc1
[A] > 100 µM

[Q] # value lookup — system KM12 colon, readout TGI, item COc1ccc(/C=C\c2cc(OC)c(OC)c(OC)c2)c(NS(=O)(=O)c2ccc(Cl)cc2)c1O
[A] 12.8 µM

* * *

Test system: ACHN renal
assay.text: NCI tumour cell line growth inhibition, 48 h
value.kind: TGI

>>> result("O=[N+]([O-])c1cc(F)ccc1Sc1ccccc1")
"> 10 µM"
>>> result("CC(=O)O[C@H]1CCC2[C@@H]3CCC4NC(=O)C(C#N)C[C@]4(C)C3CC[C@@]21C (stereo not given in full)")
"> 10 µM"
>>> result("C/C(=C(/c1ccc(O)cc1)c1ccc(Cl)cc1)c1ccccc1")
"1.8 µM"
>>> result("CCCCNC(=O)Oc1ccc(/C(=C(/CC)Cc2ccccc2)c2ccc(OCCN3CCCCCC3)cc2)cc1")
"41.6 µM"

[Q] Please give the measured TGI for this compound: Cc1c(C(=O)CC(=O)C(=O)Nc2cc(Cl)ccc2Cl)[n+](=O)c2ccccc2n1[O-]
[A] > 100 µM

[Q] Please give the measured TGI for this compound: COC(=O)c1cc(C)ccc1/C=C1\Cc2c(C)cc(C)cc2C1=O
[A] > 100 µM

* * *

The compounds listed here are annotated with their TGI.
System: MALME-3M melanoma
assay.text: NCI tumour cell line growth inhibition, 48 h

>>> result("Cc1nc(Nc2nc3ccccc3[nH]2)nc(Cl)c1CCCl")
"> 100 µM"

[Q] Please give the measured TGI for this compound: CC(=Nc1cc(Cl)cc(Cl)c1)c1ccncc1
[A] > 100 µM

[Q] Please give the measured TGI for this compound: CC(=O)c1cc(-c2ccccc2N)n(-c2ccc3c(c2)OCO3)c1C
[A] > 83.3 µM

* * *

Test system: MALME-3M melanoma
assay.text: NCI tumour cell line growth inhibition, 48 h; in the data active = GI50 below about 0.43 µM; inactive = the rest
Hello, when you answer, please use one of the following outcomes: true (active), false (inactive)

The following molecules have reported results that may help.
>>> class_assignment("CSc1nsc(S/C=C\\C(=O)c2ccc(C)cc2)n1")
"false"
>>> class_assignment("Cc1nn(CNc2ccccc2C(F)(F)F)c(=S)n1/N=C/c1ccc(F)cc1")
"false"
>>> class_assignment("CC(=O)c1cc(-c2ccccc2N)n(-c2ccc3c(c2)OCO3)c1C")
"false"

[Q] Hi, sorry to bother you, what did the test record for Oc1c(CN2CCCC2)cc(CSCc2ccccc2)c2cccnc12 ?
[A] false

[Q] Hi, sorry to bother you, what did the test record for CCCCN(CCCC)CCc1c(C)cc(C)c(CCN(CCCC)CCCC)c1O ?
[A] false

* * *

System: K-562 leukemia
assay.text: NCI tumour cell line growth inhibition, 48 h
value.kind: TGI

>>> result("Cc1ccc(NC2=N/C(=C/c3ccco3)C(Cl)=N2)cc1")
"> 100 µM"
>>> result("Cn1c(=O)n(CC2CS2)c2ccccc21 (stereo unspecified)")
"> 100 µM"
>>> result("COc1cc2c(c(OC)c1)C(=O)O[C@H](C)CCCC/C=C/C2")
"> 100 µM"
>>> result("C/C(=N\\NC(=S)N1CCN(c2ccccn2)CC1)c1nccs1")
"6.33 µM"

[Q] # value lookup — system K-562 leukemia, readout TGI, item CC1CN=C(c2ccc(-c3nc(-c4ccc(C5=NCC(C)N5)cc4)nc(N(C)C)n3)cc2)N1 (stereo unspecified)
[A] 6 µM

[Q] # value lookup — system K-562 leukemia, readout TGI, item CC1=CC[C@](C)(O)[C@@]2(C)CC[C@H]3C(=C(C)C)C(=O)C[C@]3(C)C[C@H]12
[A] 17 µM

[Q] # value lookup — system K-562 leukemia, readout TGI, item COc1cc(S(=O)(=O)Nc2ccc(-c3csc(/N=C\c4ccccc4)n3)cc2)ccc1Cl
[A] > 100 µM

[Q] # value lookup — system K-562 leukemia, readout TGI, item CC(=O)NC(=O)NC1=NCCC(=O)N1CCc1c[nH]c2ccccc12
[A] > 100 µM

[Q] # value lookup — system K-562 leukemia, readout TGI, item CN(C)CCNC(=O)c1cc(NC(=O)c2cc(NC(=O)CC/C=C3/[C@@H]4CC[C@H]3N=N4)cn2C)cn1C
[A] > 100 µM

[Q] # value lookup — system K-562 leukemia, readout TGI, item O=c1nc2ccc3sc4ccccc4c(=O)c3n2c(=O)[nH]1
[A] > 100 µM

[Q] # value lookup — system K-562 leukemia, readout TGI, item CC(/C=C/NNC1=NC(c2ccccc2)C(c2ccccc2)=NN1)Sc1ccccc1N (stereo unspecified)
[A] > 100 µM

* * *

Test system: DMS 273 small cell lung
assay.text: NCI tumour cell line growth inhibition, 48 h
value.kind: TGI

>>> result("Clc1ccc(-c2c(C3=NCCN3)nnn2-c2ccccc2)cc1")
"> 100 µM"
>>> result("CC1=NOC(=O)C1N=Nc1ccc(Br)c(C)c1 (centres undefined)")
"45.6 µM"
>>> result("C/C(=N\\NC(=S)N1CCN(c2ccccn2)CC1)c1nccs1")
"11.4 µM"
>>> result("O=C1C(Cl)=C(c2ccc([N+](=O)[O-])cc2)C(=O)c2c(O)cccc21")
"> 100 µM"
>>> result("Cc1c(C(=O)CC(=O)C(=O)Nc2cc(Cl)ccc2Cl)[n+](=O)c2ccccc2n1[O-]")
"69.4 µM"

[Q] Please give the measured TGI for this compound: Nc1cc2[nH]cnc2c(=O)[nH]1
[A] > 146 µM

[Q] Please give the measured TGI for this compound: CC1(O)CCC2(C)C(=O)C1(C)CCC21OCCO1 (centres undefined)
[A] > 100 µM

[Q] Please give the measured TGI for this compound: COC(=O)C1Cc2c([nH]c3ccccc23)C(c2ccccc2O)N1Cc1ccccc1 (centres undefined)
[A] > 31.6 µM

[Q] Please give the measured TGI for this compound: Clc1ccc2ns[s+]c2c1
[A] > 100 µM

[Q] Please give the measured TGI for this compound: COc1cc(/C=C/c2ccc(OC)c(OC)c2OC)cc(OC)c1OC
[A] 41 µM
